Consider the following binders; for each one, report its log10(Kd).
# systemTested: T1, recombinant extracellular domain (ECD) of human TF, amino acid 1-219 of the mature chain, C-terminal His6-tag (human, UniProt P13726 33-251)
# T1 construct: expressed in a mammalian system; used for ELISA and Biacore; biotinylated by NHS-ester for the Fab ELISA; also called His6-TF-ECD1-219; HumanTF1-219
# protocolNotes: Biacore
The figures below represent log10 of Kd, where Kd is stated in nM.

# example entries with known answers
• M1595 (antibody, V domains shown, complete MAb; FR4 is its own entry; also called H160/L3) VH: EVQLVQSGAEVKKPGESLRISCKGSGYTFYPYWIEWVRQMPGKGLEWMGDILPGTGFTNYSPSFQGHVTISADKSISTAYLQWSSLKASDTAMYYCARSGYYGNSGFAYWGQGTLVTVSS VL: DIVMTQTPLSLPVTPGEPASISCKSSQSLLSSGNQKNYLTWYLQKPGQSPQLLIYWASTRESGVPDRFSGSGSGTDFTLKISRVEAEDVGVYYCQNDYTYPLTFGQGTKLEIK = -0.41
• M51 (antibody, V domains shown, complete MAb; FR4 is its own entry; also called H21/L2) VH: EVQLVQSGAEVKKPGATVKISCKVSGYTFITYWIEWVQQAPGKGLEWMGDILPGSGSTNYNENFKGRVTITADTSTDTAYMELSSLRSEDTAVYYCATSGYYGNSGFAYWGQGTLVTVSS VL: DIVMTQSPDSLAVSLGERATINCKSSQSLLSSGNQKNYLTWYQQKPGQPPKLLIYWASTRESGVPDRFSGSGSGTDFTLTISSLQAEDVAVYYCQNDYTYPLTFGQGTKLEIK = 0.46
• M1606 (antibody, V domains shown, complete MAb; FR4 is its own entry; also called H181/L3) VH: EVQLVQSGAEVKKPGESLRISCKGSGYTFIPHWIEWVRQMPGKGLEWMGDILPGSGWTNYSPSFQGHVTISADKSISTAYLQWSSLKASDTAMYYCARSGYYGNSGFAYWGQGTLVTVSS VL: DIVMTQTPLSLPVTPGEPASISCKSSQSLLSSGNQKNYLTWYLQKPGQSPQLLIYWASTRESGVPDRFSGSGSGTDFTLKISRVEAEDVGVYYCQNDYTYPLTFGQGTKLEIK = -0.74
• M1590 (antibody, V domains shown, complete MAb; FR4 is its own entry; also called H117/L3) VH: EVQLVQSGAEVKKPGESLRISCKGSGYTFLPYWIEWVRQMPGKGLEWMGDIIPGTGFTNYSPSFQGHVTISADKSISTAYLQWSSLKASDTAMYYCARSGYYGNSGFAYWGQGTLVTVSS VL: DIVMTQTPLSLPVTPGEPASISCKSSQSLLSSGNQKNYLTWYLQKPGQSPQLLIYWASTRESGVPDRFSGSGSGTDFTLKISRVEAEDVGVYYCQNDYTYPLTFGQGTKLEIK = -0.16
• M1597 (antibody, V domains shown, complete MAb; FR4 is its own entry; also called H134/L3) VH: EVQLVQSGAEVKKPGESLRISCKGSGYTFSSYWIEWVRQMPGKGLEWMGDILPGTGATHYSPSFQGHVTISADKSISTAYLQWSSLKASDTAMYYCARSGYYGNSGFAYWGQGTLVTVSS VL: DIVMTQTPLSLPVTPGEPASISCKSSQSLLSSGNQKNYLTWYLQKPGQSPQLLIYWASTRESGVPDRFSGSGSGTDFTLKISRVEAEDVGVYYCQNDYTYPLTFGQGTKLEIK = -0.10

Batch request: log10(Kd) per item, same order as input.
1. M1591 (antibody, V domains shown, complete MAb; FR4 is its own entry; also called H122/L3) VH: EVQLVQSGAEVKKPGESLRISCKGSGYTFRPYWIEWVRQMPGKGLEWMGDIIPGTGYTNYSPSFQGHVTISADKSISTAYLQWSSLKASDTAMYYCARSGYYGNSGFAYWGQGTLVTVSS VL: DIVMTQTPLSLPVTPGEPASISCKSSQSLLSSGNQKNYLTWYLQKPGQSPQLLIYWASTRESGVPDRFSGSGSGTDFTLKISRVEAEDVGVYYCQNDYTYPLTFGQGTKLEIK
2. M1602 (antibody, V domains shown, complete MAb; FR4 is its own entry; also called H106/L3) VH: EVQLVQSGAEVKKPGESLRISCKGSGYTFDAHWIEWVRQMPGKGLEWMGDILPGSGFTDYSPSFQGHVTISADKSISTAYLQWSSLKASDTAMYYCARSGYYGNSGFAYWGQGTLVTVSS VL: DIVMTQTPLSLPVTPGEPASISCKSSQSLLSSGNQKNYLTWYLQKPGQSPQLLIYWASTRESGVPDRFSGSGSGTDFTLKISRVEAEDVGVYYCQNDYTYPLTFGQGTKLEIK
3. M1640 (antibody, V domains shown, complete MAb; FR4 is its own entry; also called H22/L327) VH: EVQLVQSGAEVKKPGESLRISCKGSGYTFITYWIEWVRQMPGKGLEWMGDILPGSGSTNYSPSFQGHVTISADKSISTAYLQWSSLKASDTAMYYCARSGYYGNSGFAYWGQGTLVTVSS VL: DIVMTQTPLSLPVTPGEPASISCKSSQSLLPSWNQSNYLTWYLQKPGQSPQLLIYWASTRESGVPDRFSGSGSGTDFTLKISRVEAEDVGVYYCQNDFTYPLTFGQGTKLEIK
4. M1639 (antibody, V domains shown, complete MAb; FR4 is its own entry; also called H22/L320) VH: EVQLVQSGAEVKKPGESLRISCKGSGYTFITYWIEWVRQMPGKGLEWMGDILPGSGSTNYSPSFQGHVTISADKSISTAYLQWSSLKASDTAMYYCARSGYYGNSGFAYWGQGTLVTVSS VL: DIVMTQTPLSLPVTPGEPASISCKSSQSLLYSGNQRNYLTWYLQKPGQSPQLLIYWASTRSSGVPDRFSGSGSGTDFTLKISRVEAEDVGVYYCQNDDTYPMTFGQGTKLEIK

Ans:
1. -0.39
2. -0.21
3. -0.12
4. -1.10

Q: Give the measured log10(Kd) of M1651 (antibody, V domains shown, complete MAb; FR4 is its own entry; also called H171/L162) VH: EVQLVQSGAEVKKPGESLRISCKGSGYTFAPYWIEWVRQMPGKGLEWMGDILPGTGFTTYSPSFQGHVTISADKSISTAYLQWSSLKASDTAMYYCARSGYYGNSGFAYWGQGTLVTVSS VL: DIVMTQTPLSLPVTPGEPASISCKSSQSLLYVYGQKNYLTWYLQKPGQSPQLLIYWASTRESGVPDRFSGSGSGTDFTLKISRVEAEDVGVYYCQNDFSWPLTFGQGTKLEIK .
Ans: -0.72
